B1: CPEB3 Ribozyme (parent)
chain: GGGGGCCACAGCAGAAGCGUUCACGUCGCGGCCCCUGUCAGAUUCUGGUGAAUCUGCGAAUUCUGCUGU

# Variants of: B1
# run description: self-cleavage, relative activity (ratio to wild type); higher = more cleavage; co-transcriptional
Here, each record is paired with measured self-cleavage data.
experimental readout: self-cleavage

{"alteration": "A8G C35U", "experimental readout": "self-cleavage", "measurement": 0.808}
{"alteration": "C12U C24G", "experimental readout": "self-cleavage", "measurement": 0.316}
{"alteration": "C33A G68C", "experimental readout": "self-cleavage", "measurement": 0.967}
{"alteration": "C39A A42U", "experimental readout": "self-cleavage", "measurement": 0.551}
{"alteration": "A8G U36C", "experimental readout": "self-cleavage", "measurement": 0.593}
{"alteration": "G17A C27A", "experimental readout": "self-cleavage", "measurement": 0.126}
{"alteration": "U55G C66G", "experimental readout": "self-cleavage", "measurement": 0.451}
{"alteration": "C35A C45A", "experimental readout": "self-cleavage", "measurement": 0.22}
{"alteration": "A16U G65C", "experimental readout": "self-cleavage", "measurement": 0.462}
{"alteration": "A15C G50U", "experimental readout": "self-cleavage", "measurement": 0.878}
{"alteration": "U26C G28C", "experimental readout": "self-cleavage", "measurement": 0.1}
